target: T1, biotinylated CD3 epsilon:delta heterodimer protein (Amsbio AMS.CDD-H52WO) (Homo sapiens (Human), UniProt P07766 23-126; P04234 22-105); test: BLI (Octet), CD3 on SA sensor, Fab analyte;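 note: fab analyte at several concentrations up to 300 nM, association 100 s then 300 s dissociation in buffer, biosensors blocked with biocytin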
T1 construct: also called CD3 heterodimer
Kindly state koff for each of the entries shown.
Give bare numbers, in s⁻¹.

Take a look at these entries with their results.
huSP34.34.10 Fab-HF (Fab, V domains shown, also called HC34+LC10) VH: EVQLVESGGGLVQPGGSLRLSCAASGFTFNTYAMNWVRQAPGKGLEWVGRIRSKYNNYATYYAASVKGRFTISRDDSKNSLYLQMNSLKTEDTAMYYCVRHGNFGHSYVSWFAYWGQGTLVTVSS VL: QAVVTQPPSLTVSPGGTVTLTCGSSTGAVTTGHYANWVQQKPGQAPRGLIGGTNKRAPGVPARFSGSLSGGKAALTISGAQPEDEAEYYCALWYSNRWVFGGGTKLTVL | 0.000303
huSP34.34.16 Fab-HF (Fab, V domains shown, also called HC34+LC16) VH: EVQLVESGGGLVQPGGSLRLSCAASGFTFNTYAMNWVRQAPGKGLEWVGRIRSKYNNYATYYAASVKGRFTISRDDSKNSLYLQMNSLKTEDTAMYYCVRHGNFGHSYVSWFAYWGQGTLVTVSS VL: QAVVTQPPSLTVSPGGTVTLTCGSSTGAVTTGHYANWVQQKPGQAPRGLIGGTSNRAPWTPARFSGSLSGGKAALTISGAQPEDEAEYYCALWYSNRWVFGGGTKLTVL | 0.00599
huSP34.34.14 Fab-HF (Fab, V domains shown, also called HC34+LC14) VH: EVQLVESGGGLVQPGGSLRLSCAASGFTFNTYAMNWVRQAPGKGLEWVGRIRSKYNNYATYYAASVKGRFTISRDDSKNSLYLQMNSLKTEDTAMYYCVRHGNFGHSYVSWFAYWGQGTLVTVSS VL: QAVVTQPPSLTVSPGGTVTLTCGSSTGAVTTGHYANWVQQKPGQAPRGLIGGTSNRAPGVPARFSGSLSGGKAALTISGAQPEDEAEYYCALWYSNRWVFGGGTKLTVL | 0.00126
huSP34.3.10 Fab-HF (Fab, V domains shown, also called HC3+LC10) VH: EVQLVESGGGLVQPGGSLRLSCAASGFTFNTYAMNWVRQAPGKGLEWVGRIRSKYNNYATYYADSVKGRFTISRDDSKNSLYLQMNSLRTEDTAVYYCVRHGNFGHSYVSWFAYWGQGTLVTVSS VL: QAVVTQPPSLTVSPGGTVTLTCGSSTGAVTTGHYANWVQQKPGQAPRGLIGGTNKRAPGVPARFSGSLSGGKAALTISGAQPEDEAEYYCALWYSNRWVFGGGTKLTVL | 0.000235

// returns reported koff for input huSP34.35.15 Fab-HF (Fab, V domains shown, also called HC35+LC15) VH: EVQLVESGGGLVQPGGSLRLSCAASGFTFNDYAMNWVRQAPGKGLEWVGRTRSKYNNYATYYAASVKGRFTISRDDSKNSLYLQMNSLKTEDTAMYYCVRHGNFGHSYVSWFAYWGQGTLVTVSS VL: QAVVTQPPSLTVSPGGTVTLTCGSSTGAVTTGHYANWVQQKPGQAPRGLIGGTNKRAPGVPARFSGSLSGGKAALTISGAQPEDEAEYYCALWYSARWVFGGGTKLTVL
0.17
